# study system: IDH1 R132H (Homo sapiens, UniProt O75874, R132H)
# Sequence (O75874 whole entry R132H): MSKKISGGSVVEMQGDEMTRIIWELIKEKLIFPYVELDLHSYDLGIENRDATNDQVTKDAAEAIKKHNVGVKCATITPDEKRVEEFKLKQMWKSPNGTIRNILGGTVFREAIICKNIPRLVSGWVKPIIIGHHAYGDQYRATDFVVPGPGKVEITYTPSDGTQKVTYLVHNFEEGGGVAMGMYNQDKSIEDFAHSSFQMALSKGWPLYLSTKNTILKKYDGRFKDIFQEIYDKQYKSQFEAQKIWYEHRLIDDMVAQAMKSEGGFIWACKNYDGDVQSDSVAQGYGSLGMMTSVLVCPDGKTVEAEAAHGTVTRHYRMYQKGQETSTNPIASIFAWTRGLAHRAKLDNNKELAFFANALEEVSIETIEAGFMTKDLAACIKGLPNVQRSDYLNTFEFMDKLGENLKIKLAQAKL
# assay summary: IDH1 R132H enzymatic assay (NADPH depletion coupled to diaphorase/resazurin)
# Assay type: biochemical
# condition parameters: IDH1 R132H enzymatic inhibition, IC50 class

>  <molecule>
CCc1cccc(CC)c1-n1c(C=C(C)C)c(C(=O)N2CCC3(CCNC3)C2)cc(-c2nc(-c3ccc(Cl)cc3)cs2)c1=O (stereo not shown) [Compound 659]

>  <study system>
IDH1 R132H (Homo sapiens, UniProt O75874, R132H)

>  <IC50>
300 to 1000 nM

$$$$
>  <molecule>
CCOc1ccc(F)cc1-n1c(CC(C)C)c(C(=O)N2CCNCC2)cc(-c2nc(-c3ccc(C(F)F)cc3)cs2)c1=O

>  <study system>
IDH1 R132H (Homo sapiens, UniProt O75874, R132H)

>  <IC50>
300 to 1000 nM

$$$$
>  <molecule>
CCc1cccc(CC)c1-n1c(CO)c(C(=O)NC)cc(-c2nc(-c3ccc(Cl)cc3)cs2)c1=O

>  <study system>
IDH1 R132H (Homo sapiens, UniProt O75874, R132H)

>  <IC50>
1000 to 5000 nM

$$$$
>  <molecule>
CCc1cccc(CC)c1-n1c2c(cc(-c3nc(-c4cnc(C)nc4)c(C)s3)c1=O)C(=O)CC(C)(C)C2

>  <study system>
IDH1 R132H (Homo sapiens, UniProt O75874, R132H)

>  <IC50>
5000 to 20000 nM

$$$$

====

# study system: IDH1 R132C (Homo sapiens, UniProt O75874, R132C)
# Sequence (O75874 whole entry R132C): as the sequence (O75874 whole entry R132H) above, with H132C counted along it
# assay summary: IDH1 R132C enzymatic assay (NADPH depletion coupled to diaphorase/resazurin)
# Assay type: biochemical
# condition parameters: enzymatic inhibition, IDH1 R132C
attribute measured: IC50

>  <compound>
COc1cc(F)ccc1-n1c2c(cc(-c3nc(-c4ccc(Cl)cc4)cs3)c1=O)C(=O)CC(C)(C)C2 [Compound 557]

>  <study system>
IDH1 R132C (Homo sapiens, UniProt O75874, R132C)

>  <attribute measured>
IC50

>  <value observed>
1 to 5 µM

$$$$
>  <compound>
CCOc1ccc(-n2ccc(-c3cc(C(=O)N4CCNCC4)c(C=C(C)C)n(-c4c(CC)cccc4CC)c3=O)n2)cc1 [Compound 552]

>  <study system>
IDH1 R132C (Homo sapiens, UniProt O75874, R132C)

>  <attribute measured>
IC50

>  <value observed>
< 0.3 µM

$$$$
>  <compound>
COc1cc(Cl)ccc1-n1c2c(cc(-c3nc(-c4ccc(Cl)cc4)cs3)c1=O)C(=O)CC(C)(C)C2 [Compound 579]

>  <study system>
IDH1 R132C (Homo sapiens, UniProt O75874, R132C)

>  <attribute measured>
IC50

>  <value observed>
5 to 20 µM

$$$$
>  <compound>
Cc1ccc(CN2CCN(C)CC2)cc1-n1c2c(cc(-c3nc(-c4ccc(Cl)cc4)cs3)c1=O)C(=O)CC(C)(C)C2 [Compound 460]

>  <study system>
IDH1 R132C (Homo sapiens, UniProt O75874, R132C)

>  <attribute measured>
IC50

>  <value observed>
5 to 20 µM

$$$$
>  <compound>
CC(C)=Cc1c(C(=O)N2CCNCC2)cc(-c2nc(-c3ccc(Cl)cc3)cs2)c(=O)n1-c1cc(Cl)cnc1OC(C)C [Compound 602]

>  <study system>
IDH1 R132C (Homo sapiens, UniProt O75874, R132C)

>  <attribute measured>
IC50

>  <value observed>
< 0.3 µM

$$$$
>  <compound>
O=C1CCCc2c1cc(-c1nc(-c3ccc(Cl)cc3)cs1)c(=O)n2-c1ccccc1C(F)(F)F [Compound 451]

>  <study system>
IDH1 R132C (Homo sapiens, UniProt O75874, R132C)

>  <attribute measured>
IC50

>  <value observed>
1 to 5 µM

$$$$
>  <compound>
CCc1cccc(CC)c1-n1c(CC2CCCO2)c(C(=O)N2CCNCC2)cc(-c2nc(-c3ccc(Cl)cc3)cs2)c1=O (stereo not shown) [Compound 506]

>  <study system>
IDH1 R132C (Homo sapiens, UniProt O75874, R132C)

>  <attribute measured>
IC50

>  <value observed>
< 0.3 µM

$$$$

====

# study system: IDH1 R132H (Homo sapiens, UniProt O75874, R132H)
# assay summary: IDH1 R132H enzymatic assay (NADPH depletion coupled to diaphorase/resazurin)
# Type: biochemical
# condition parameters: IDH1 R132H enzymatic inhibition, IC50 class
# Procedure: Assays were conducted in a 1536-well black solid-bottom plate with a final assay volume of 9 μL. Specifically, for IDH1 R132H, 3 μL of enzyme (4 mM β-ME, 0.0005 mg/mL IDH1 R132H, 150 mM NaCl, 20 mM Tris pH 7.5, 10 mM MgCl2, 0.05% BSA) were added to the plate, followed by the addition of 23 nL of test compound in DMSO. […]
The following compounds are listed with their measured IC50 values.

>  <compound>
CCc1cccc(CC)c1-n1c(C)c(C(=O)N2CCN[C@@H](C(=O)OC)C2)cc(-c2nc(-c3ccc(Cl)cc3)cs2)c1=O [Compound 83]

>  <IC50>
1 to 5 µM

$$$$
>  <compound>
CCc1ncc(F)cc1-n1c(C=C(C)C)c(C(=O)N2CCNCC2)cc(-c2nc(-c3ccc(C(F)F)cn3)cs2)c1=O [Compound 619]

>  <IC50>
1 to 5 µM

$$$$
>  <compound>
Cc1cc(-n2c3c(cc(-c4nc(-c5ccc(Cl)cc5)cs4)c2=O)C(=O)CC(C)(C)C3)n(C)n1 [Compound 72]

>  <IC50>
1 to 5 µM

$$$$
>  <compound>
CCc1cccc(CC)c1-n1c(CC(C)C)c(C(=O)N2CCN[C@@H](C(=O)OC)C2)cc(-c2nc(-c3ccc(Cl)cc3)cs2)c1=O [Compound 131]

>  <IC50>
1 to 5 µM

$$$$
>  <compound>
CC(C)=Cc1c(C(=O)N2CCNCC2)cc(-c2nc(-c3ccc(Cl)cc3)cs2)c(=O)n1-c1ccccc1OC(C)C [Compound 399]

>  <IC50>
< 0.3 µM

$$$$
>  <compound>
CCc1cccc(CC)c1-n1c2c(cc(-c3nc(-c4ccccc4F)cs3)c1=O)C(=O)CC(C)(C)C2 [Compound 226]

>  <IC50>
1 to 5 µM

$$$$
>  <compound>
CCc1cccc(CC)c1-n1c2c(cc(-c3nc(C4=CCN(C(=O)OC(C)(C)C)CC4)c(C)s3)c1=O)C(=O)CC(C)(C)C2 [Compound 197]

>  <IC50>
1 to 5 µM

$$$$

====

# study system: IDH1 R132C (Homo sapiens, UniProt O75874, R132C)
# assay summary: IDH1 R132C enzymatic assay (NADPH depletion coupled to diaphorase/resazurin)
# Format: biochemical
# condition parameters: enzymatic inhibition, IDH1 R132C

>  <compound>
CCc1cccc(CC)c1-n1c(C=C(C)C)c(C(=O)N2CCNCC2)cc(-c2nc(-c3ccc(C(F)F)nc3)cs2)c1=O [Compound 546]

>  <study system>
IDH1 R132C (Homo sapiens, UniProt O75874, R132C)

>  <IC50>
< 300 nM

$$$$
>  <compound>
CCc1cccc(CC)c1-n1c(C2CCCO2)c(C(=O)N2CCNCC2)cc(-c2nc(-c3ccc(Cl)cc3)cs2)c1=O (stereo not shown) [Compound 457]

>  <study system>
IDH1 R132C (Homo sapiens, UniProt O75874, R132C)

>  <IC50>
< 300 nM

$$$$
>  <compound>
CCc1ncc(OC)cc1-n1c(C=C(C)C)c(C(=O)N2CCNCC2)cc(-c2nc(-c3ccc(C(F)F)cc3)cs2)c1=O [Compound 427]

>  <study system>
IDH1 R132C (Homo sapiens, UniProt O75874, R132C)

>  <IC50>
300 to 1000 nM

$$$$
>  <compound>
CCc1cccc(CC)c1-n1c(C2CCCCC2)c(C(=O)N2CCNCC2)cc(-c2nc(-c3ccc(Cl)cc3)cs2)c1=O [Compound 549]

>  <study system>
IDH1 R132C (Homo sapiens, UniProt O75874, R132C)

>  <IC50>
300 to 1000 nM

$$$$
>  <compound>
CCOc1ncc(C)cc1-n1c(C=C(C)C)c(C(=O)N2CCNCC2)cc(-c2nc(-c3ccc(C(F)F)cn3)cs2)c1=O [Compound 592]

>  <study system>
IDH1 R132C (Homo sapiens, UniProt O75874, R132C)

>  <IC50>
1000 to 5000 nM

$$$$
>  <compound>
CCc1cccc(CC)c1-n1c(CC(C)C)c(C(=O)N2CCNCC2)cc(-c2ccnc(-c3ccc(Cl)cc3)n2)c1=O [Compound 417]

>  <study system>
IDH1 R132C (Homo sapiens, UniProt O75874, R132C)

>  <IC50>
300 to 1000 nM

$$$$
>  <compound>
CCc1cccc(CC)c1-n1c(C=C(C)C)c(C(=O)N2CCNC(C(N)=O)C2)cc(-c2nc(-c3ccc(Cl)cc3)cs2)c1=O (stereo not shown) [Compound 426]

>  <study system>
IDH1 R132C (Homo sapiens, UniProt O75874, R132C)

>  <IC50>
< 300 nM

$$$$
